Data export: Ki values recorded with human α-thrombin (Homo sapiens, UniProt P00734).
Counter-ions that a name gives are not always drawn.
Numbers only; they are read as nM.

Molecule	Unit abbreviation	Ki
Cc1c(Cl)nc(NCC(c2ccccc2)c2ccccc2)c(=O)n1CC(=O)NCCONC(=N)N [Example 4, trifluoroacetate]	nM	85
Cc1ccc(CCNc2ncc(C)n(CC(=O)NCCONC(=N)N)c2=O)cc1 [Example 5, trifluoroacetate]	nM	20
Cc1c(Cl)nc(NCCc2ccccc2)c(=O)n1CC(=O)NCCONC(=N)N [Example 2, trifluoroacetate]	nM	330

Input: Write down the reported Ki (system: human α-thrombin (Homo sapiens, UniProt P00734)) of Cc1cnc(NCCc2ccccc2)c(=O)n1CC(=O)NCCONC(=N)N [Example 1, trifluoroacetate]
Output: 46
